# test.details: Antiproliferative activity against human EBC1 cells after 72 hrs
# condition.info: EBC-1, 72 h
pIC50: −log10 of the molar value.
Parameter pIC50: see the listing below.
observation.type: pIC50

{"compound": "CNC(=O)c1cccc(-c2cc(F)c3ncc(Cc4ccc5ncccc5c4)n3c2)c1", "observation.type": "pIC50", "assay.value": 6.40}
{"compound": "O=C(NCC1CCCCN1)c1ccc(-c2cc(F)c3ncc(Cc4ccc5ncccc5c4)n3c2)cc1F (stereo not given)", "observation.type": "pIC50", "assay.value": 6.56}
{"compound": "CNC(=O)c1cc(-c2cc(F)c3ncc(Cc4ccc5ncccc5c4)n3c2)ccc1F", "observation.type": "pIC50", "assay.value": 6.61}
{"compound": "COc1ccc(-c2cc(F)c3ncc(Cc4ccc5ncccc5c4)n3c2)cc1F", "observation.type": "pIC50", "assay.value": 6.39}
{"compound": "CCO/N=C(\\C)c1cc(F)c2ncc(Cc3ccc4ncccc4c3)n2c1", "observation.type": "pIC50", "assay.value": 5.83}
{"compound": "Fc1cc(-c2cnn(C3CCNCC3)c2)cn2c(Cc3ccc4ncccc4c3)cnc12", "observation.type": "pIC50", "assay.value": 5.84}
{"compound": "CN1CCN(C(=O)c2ccc(-c3cc(F)c4ncc(Cc5ccc6ncccc6c5)n4c3)cc2F)CC1", "observation.type": "pIC50", "assay.value": 6.06}
{"compound": "OCCn1cc(-c2cc(F)c3ncc(Cc4ccc5ncccc5c4)n3c2)cn1", "observation.type": "pIC50", "assay.value": 6.47}
{"compound": "CNC(=O)c1cc(-c2cc(F)c3ncc(Cc4ccc5ncccc5c4)n3c2)ccc1Cl", "observation.type": "pIC50", "assay.value": 6.02}
{"compound": "O=C(c1ccc(-c2cc(F)c3ncc(Cc4ccc5ncccc5c4)n3c2)cc1F)N1CCC2(COC2)C1", "observation.type": "pIC50", "assay.value": 6.39}

* * *

# assayed.system: Tyrosine-protein kinase receptor TYRO3 (Homo sapiens, UniProt Q06418)
# Sequence (Q06418 whole entry): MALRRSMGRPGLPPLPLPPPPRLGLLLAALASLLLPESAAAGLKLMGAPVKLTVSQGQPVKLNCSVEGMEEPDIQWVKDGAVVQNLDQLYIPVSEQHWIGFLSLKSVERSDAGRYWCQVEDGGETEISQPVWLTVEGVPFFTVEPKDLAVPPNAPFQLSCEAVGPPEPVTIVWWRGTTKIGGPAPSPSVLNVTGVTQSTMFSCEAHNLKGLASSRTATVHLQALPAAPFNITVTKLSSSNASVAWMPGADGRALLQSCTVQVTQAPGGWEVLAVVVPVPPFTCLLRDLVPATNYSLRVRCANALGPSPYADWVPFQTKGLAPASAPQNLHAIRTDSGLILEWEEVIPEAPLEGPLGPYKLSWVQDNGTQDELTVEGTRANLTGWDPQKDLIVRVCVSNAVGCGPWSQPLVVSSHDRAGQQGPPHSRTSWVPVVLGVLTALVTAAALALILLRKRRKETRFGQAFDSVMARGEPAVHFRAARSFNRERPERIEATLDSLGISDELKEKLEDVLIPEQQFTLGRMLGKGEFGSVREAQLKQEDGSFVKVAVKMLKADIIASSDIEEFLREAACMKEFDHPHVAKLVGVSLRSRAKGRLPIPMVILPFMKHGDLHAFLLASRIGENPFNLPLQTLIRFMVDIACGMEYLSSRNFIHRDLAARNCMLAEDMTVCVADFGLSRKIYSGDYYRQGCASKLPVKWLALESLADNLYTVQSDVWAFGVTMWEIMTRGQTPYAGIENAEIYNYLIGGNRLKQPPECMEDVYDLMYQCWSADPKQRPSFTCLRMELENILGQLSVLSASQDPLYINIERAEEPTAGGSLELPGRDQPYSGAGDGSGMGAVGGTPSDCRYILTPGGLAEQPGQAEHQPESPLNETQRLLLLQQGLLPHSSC
# test.details: Inhibition of Tyro3 (unknown origin) using polu (Glu,Tyr)4:1 substrate after 30 mins incubation by multi-well spectrophotometry
pIC50: −log10 of the molar value.
observation.type: pIC50

{"structure.as.smiles": "CNC(=O)c1ccc(-c2cc(F)c3ncc(Cc4ccc5ncccc5c4)n3c2)cc1F", "assay.value": "< 5.00"}

* * *

# Tested on: NCI-H23
# test.details: Antiproliferative activity against human NCI-H23 cells after 72 hrs
# Type: functional, cell-based
# condition.info: NCI-H23, 72 h
pIC50: −log10 of the molar value.
observation.type: pIC50

{"structure.as.smiles": "CNC(=O)c1ccc(-c2cc(F)c3ncc(Cc4ccc5ncccc5c4)n3c2)cc1F", "assay.value": "< 4.30"}

* * *

# Tested on: BaF3
# test.details: Antiproliferative activity against mouse BAF3/TPR-Met cells after 72 hrs
# Format: functional, cell-based
# condition.info: BaF3, 72 h
pIC50: −log10 of the molar value.

{"structure.as.smiles": "C[C@@H](Oc1cc(-c2cnn(C3CCNCC3)c2)cnc1N)c1c(Cl)ccc(F)c1Cl", "pIC50": 6.89}
{"structure.as.smiles": "CNC(=O)c1ccc(-c2cc(F)c3ncc(Cc4ccc5ncccc5c4)n3c2)cc1F", "pIC50": 6.69}
{"structure.as.smiles": "Cn1cc(-c2ccc3nnc(C(F)(F)c4ccc5ncccc5c4)n3n2)cn1", "pIC50": 7.75}
